# Test system: PPARg:RXRa DBDmut IVT, anti-RXR (DBD mutation: RXRa K156A/R161A, NR concentration 270 nM, RXRa partner concentration 90 nM)
# protocol.details: PBM binding z-score (relative to random genomic background probes); higher = stronger binding; sequences stand for … in GC…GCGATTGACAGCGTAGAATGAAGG
Param threshold (2) applies to PBM binding z-score; output MET when value >= threshold, NOT MET when value < threshold.

| entry.sequence | qualitative.label |
| --- | --- |
| GCATATAGGTAATACAAGGTGAAAGTTCGATTGT | MET |
| TCTATTAGTTGATTAGGGCAACTGAAACAGCGGA | MET |
| CCGACTGGGGCAAGGTTACCCTAACGCACAGCCA | MET |
| TCTAGTTGGTCACGGAGGTCACAGACGACGGGTA | MET |
| ACAGACAGGTTAGTGAAGGTAACTCAGCTGGACG | NOT MET |
| AGAATGAGGTTATTAAGATCAGGGGATTGCGGTC | MET |
| TAGCCTAGGACATGGGCCAGTATACCACGCGAAC | NOT MET |
| TCTCGGTGGACACGAAAGGTCAGAGCTCGACATC | NOT MET |
| CGAACTAGGTCATCCATGACAGTGAATACATTGA | MET |
| CCTAGCAGGCCAATTTGGGTCACTCAAGGCTTGA | MET |
| AGAACGAGGGCACGCTGAGTTGGTAGCAGAGTAG | MET |
| CTCGAAGGGTCGTGCTCAGGTGAGTATACCAAAC | NOT MET |
